Reported viability, T/C values for a set of molecules
Tested on: SYO-1 complex spheroid growth, percent test/control
Assay: Anticancer human tumor SYO-1 cell line growth inhibition [Asc];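 further: compound exposure lasted 7 days after spheroids grew 3 days; 100% = DMSO vehicle control viability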
Conditions: second compound 0.949 µM; first compound 0.0316 µM; hits give low values
Entry rule: numbers only, all in %.

The cases that follow already have their viability, T/C on record.
COc1c(OCCCN2CCOCC2)ccc2c3n(c(=NC(=O)c4cnc(N)nc4)nc12)CCN3 + CCN1C(C(=O)NC23CCC(C(=O)O)(CC2)CC3)C(c2cccc(Cl)c2F)C2(C(=O)Nc3cc(Cl)ccc32)C12CCCCC2    3.28
CNC(C)C(=O)NC1CN(S(=O)(=O)c2cccc(S(=O)(=O)N3CCC4CCC(C(=O)NC(c5ccccc5)c5ccccc5)N4C(=O)C(NC(=O)C(C)NC)C3)c2)CCC2CCC(C(=O)NC(c3ccccc3)c3ccccc3)N2C1=O (stereo not given) + CCN1C(C(=O)NC23CCC(C(=O)O)(CC2)CC3)C(c2cccc(Cl)c2F)C2(C(=O)Nc3cc(Cl)ccc32)C12CCCCC2    1.29
C=CC(=O)N1CCN(c2nc(=O)n(-c3c(C)ccnc3C(C)C)c3nc(-c4c(O)cccc4F)c(F)cc23)C(C)C1 (stereo not given) + CCN1C(C(=O)NC23CCC(C(=O)O)(CC2)CC3)C(c2cccc(Cl)c2F)C2(C(=O)Nc3cc(Cl)ccc32)C12CCCCC2    3.03
O=C(c1cc(Cc2n[nH]c(=O)c3ccccc23)ccc1F)N1CCN(C(=O)C2CC2)CC1 + CCN1C(C(=O)NC23CCC(C(=O)O)(CC2)CC3)C(c2cccc(Cl)c2F)C2(C(=O)Nc3cc(Cl)ccc32)C12CCCCC2    1.89
CCN1CCN(Cc2ccc(Nc3ncc(F)c(-c4cc(F)c5nc(C)n(C(C)C)c5c4)n3)nc2)CC1 + CCN1C(C(=O)NC23CCC(C(=O)O)(CC2)CC3)C(c2cccc(Cl)c2F)C2(C(=O)Nc3cc(Cl)ccc32)C12CCCCC2    2.98
C#Cc1c(F)ccc2cc(O)cc(-c3ncc4c(N5CC6CCC(C5)N6)nc(OCC56CCCN5CC(F)C6)nc4c3F)c12 (stereo not given) + CCN1C(C(=O)NC23CCC(C(=O)O)(CC2)CC3)C(c2cccc(Cl)c2F)C2(C(=O)Nc3cc(Cl)ccc32)C12CCCCC2    2.32
C=C(F)C(=O)N1CCN(c2nc(OCC3CCCN3C)nc3c2CCN(c2cccc4cccc(Cl)c24)C3)CC1CC#N (stereo not given) + CCN1C(C(=O)NC23CCC(C(=O)O)(CC2)CC3)C(c2cccc(Cl)c2F)C2(C(=O)Nc3cc(Cl)ccc32)C12CCCCC2    4.04
O=C(c1ccc(F)c(F)c1Nc1ccc(I)cc1F)N1CC(O)([C@@H]2CCCCN2)C1 + CCN1C(C(=O)NC23CCC(C(=O)O)(CC2)CC3)C(c2cccc(Cl)c2F)C2(C(=O)Nc3cc(Cl)ccc32)C12CCCCC2    3.35
NC1CCC(NC2CC2c2ccccc2)CC1 (stereo not given) + CCN1C(C(=O)NC23CCC(C(=O)O)(CC2)CC3)C(c2cccc(Cl)c2F)C2(C(=O)Nc3cc(Cl)ccc32)C12CCCCC2    1.95

Lab book: viability, T/C of Cn1ncnc1[C@H]1c2n[nH]c(=O)c3cc(F)cc(c23)N[C@@H]1c1ccc(F)cc1 + CCN1C(C(=O)NC23CCC(C(=O)O)(CC2)CC3)C(c2cccc(Cl)c2F)C2(C(=O)Nc3cc(Cl)ccc32)C12CCCCC2 noted as 1.77
